# melting point per entry

Example cases with answers are listed next.
CC(C)Oc1c(-c2ccc(S(C)(=O)=O)cc2)cnn(-c2ccc(F)cc2)c1=O; 160 to 162 °C
CS(=O)(=O)c1ccc(-c2cnn(-c3ccc(F)c(F)c3)c(=O)c2Cc2ccc(F)cc2)cc1; 157 to 159 °C
CS(=O)(=O)c1ccc(-c2cnn(C3Cc4ccccc4C3)c(=O)c2-c2ccc(F)cc2)cc1; 97 to 100 °C

For the molecule Cc1ccc(Sc2c(-c3ccc(S(C)(=O)=O)cc3)cnn(-c3cccc(Cl)c3)c2=O)cc1 , give its reported melting point. 178 °C

For the molecule CC(C)CCc1c(-c2ccc(S(C)(=O)=O)cc2)cnn(-c2ccc(F)c(F)c2)c1=O , give its reported melting point. 55 to 58 °C

For the molecule CC(C)CCCc1c(-c2ccc(S(C)(=O)=O)cc2)cnn(-c2ccc(F)cc2)c1=O , give its reported melting point. 112 to 115 °C

For the molecule CC(C)(C)COc1c(-c2ccc(S(N)(=O)=O)cc2)cnn(-c2ccc(F)c(F)c2)c1=O , give its reported melting point. 173 to 175 °C

For the molecule CS(=O)(=O)c1ccc(-c2cnn(CC(F)(F)F)c(=O)c2-c2ccc(F)c(Cl)c2)cc1 , give its reported melting point. 165 to 166 °C

For the molecule CC(c1ccc(F)c(F)c1F)n1ncc(-c2ccc(S(N)(=O)=O)cc2)c(-c2ccc(F)cc2)c1=O (centres unmarked) , give its reported melting point. 192 to 194 °C

For the molecule CC(C)CCc1c(-c2ccc(S(C)(=O)=O)cc2)cnn(-c2cccc(Cl)c2)c1=O , give its reported melting point. 60 to 65 °C

For the molecule CCCCC(CC)COc1c(-c2ccc(S(C)(=O)=O)cc2)cnn(-c2ccc(F)cc2)c1=O (centres unmarked) , give its reported melting point. 120 to 122 °C

For the molecule CC(C)CCCOc1c(-c2ccc(S(C)(=O)=O)cc2)cnn(-c2ccc(F)c(F)c2)c1=O , give its reported melting point. 98 to 99 °C

For the molecule C[S+]([O-])c1ccc(-c2cnn(CC(F)(F)F)c(=O)c2-c2ccc(Cl)cc2)cc1 (centres unmarked) , give its reported melting point. 154 to 155 °C

For the molecule CS(=O)(=O)c1ccc(-c2cnn(Cc3ccc(F)cc3F)c(=O)c2-c2ccc(F)cc2)cc1 , give its reported melting point. 179 to 182 °C
